Biological target: UniProt P10275
Sequence (P10275 whole entry): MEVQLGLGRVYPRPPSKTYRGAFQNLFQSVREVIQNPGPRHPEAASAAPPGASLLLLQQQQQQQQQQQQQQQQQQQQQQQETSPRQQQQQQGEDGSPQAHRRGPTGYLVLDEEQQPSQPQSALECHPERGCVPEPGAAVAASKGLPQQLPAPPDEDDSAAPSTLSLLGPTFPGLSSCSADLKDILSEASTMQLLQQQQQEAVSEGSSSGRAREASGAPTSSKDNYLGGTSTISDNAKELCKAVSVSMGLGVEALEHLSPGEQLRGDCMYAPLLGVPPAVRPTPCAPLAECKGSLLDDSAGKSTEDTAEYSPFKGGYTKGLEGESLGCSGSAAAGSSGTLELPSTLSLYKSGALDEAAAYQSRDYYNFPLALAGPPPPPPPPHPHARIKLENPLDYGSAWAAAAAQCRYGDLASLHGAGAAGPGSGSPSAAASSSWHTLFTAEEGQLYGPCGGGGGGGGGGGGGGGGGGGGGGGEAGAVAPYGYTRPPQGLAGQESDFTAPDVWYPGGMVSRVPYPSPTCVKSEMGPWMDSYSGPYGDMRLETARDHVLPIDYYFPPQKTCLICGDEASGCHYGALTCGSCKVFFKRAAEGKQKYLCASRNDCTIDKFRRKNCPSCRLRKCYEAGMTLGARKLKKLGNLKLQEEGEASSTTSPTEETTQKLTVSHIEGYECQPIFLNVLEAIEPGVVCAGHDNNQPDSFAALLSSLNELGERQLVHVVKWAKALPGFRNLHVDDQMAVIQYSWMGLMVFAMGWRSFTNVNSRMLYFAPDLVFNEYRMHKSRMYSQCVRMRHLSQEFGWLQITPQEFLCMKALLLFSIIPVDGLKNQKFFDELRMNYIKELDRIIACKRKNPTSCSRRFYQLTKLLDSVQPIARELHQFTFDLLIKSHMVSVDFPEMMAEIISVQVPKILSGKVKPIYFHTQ
Experiment: Androgen receptor transactivation test in PALM cell line (cross curves against methyl trienolone)
Type: cell-based
Settings: threshold lists, PALM cells, read-out: Kdapp
Property: Kd; scope: individual compounds

# annotated cases, reported Kd shown
- compound: "CCCC(O)(C(=O)Nc1cc(Br)nc(OC)c1)C(C)C (stereo not drawn) [Compound 64]"
  Kd: "≤ 30 nM"
- compound: "COc1cc(NC(=O)C(C)(O)C(C)C)cc(Br)n1 (stereo not drawn) [Compound 25]"
  Kd: "≤ 30 nM"
- compound: "COc1cc(NC(=O)C(C)(C)O)cc(Br)n1 [Compound 38]"
  Kd: "≤ 300 nM"
- compound: "CCCC(O)(CC)C(=O)Nc1cc(Br)nc(OC)c1 (stereo not drawn) [Compound 75B]"
  Kd: "≤ 100 nM"
- compound: "CCCC(C)(O)C(=O)Nc1cc(Br)nc(OC)c1 (stereo not drawn) [Compound 60]"
  Kd: "≤ 100 nM"

Next compound, Kd to be filled in.
Value wanted: Kd (UniProt P10275) of entry CCC(O)(C(=O)Nc1cc(Br)nc(OC)c1)C(C)C (stereo not drawn) [Compound 74A]
≤ 30 nM
